molecular target: TCPTP (Homo sapiens); experiment: Protein phosphatase inhibition assay, TCPTP; settings: read-out: Inhibitory Effect against Phosphatases (IC50) TCPTP
Sequence (P17706 whole entry): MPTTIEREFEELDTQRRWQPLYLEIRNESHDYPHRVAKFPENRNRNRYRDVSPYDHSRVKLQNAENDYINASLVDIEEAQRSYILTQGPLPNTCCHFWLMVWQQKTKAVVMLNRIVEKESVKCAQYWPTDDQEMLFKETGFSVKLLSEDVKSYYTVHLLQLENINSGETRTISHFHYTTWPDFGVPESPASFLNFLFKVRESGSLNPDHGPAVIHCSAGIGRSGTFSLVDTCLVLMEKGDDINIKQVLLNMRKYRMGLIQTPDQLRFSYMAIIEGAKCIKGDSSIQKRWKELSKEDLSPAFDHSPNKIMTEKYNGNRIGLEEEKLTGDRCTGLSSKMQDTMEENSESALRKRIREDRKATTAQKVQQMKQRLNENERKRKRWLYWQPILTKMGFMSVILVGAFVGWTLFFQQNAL
PROPERTY_NAME: pIC50
Just the number, please; pIC50 means minus log10 of the concentration in mol/L.

Input line: Return the recorded pIC50 value; entry: [Na+].[Na+].[Na+].[O]=[V]([O-])([O-])[O-] [Na3VO4, reference compound]
Output line: 5.62

====

assay: Cytotoxicity by CCK-8 method; format: cell-based; conditions: human, H1975 lung adenocarcinoma cells, read-out: Cytotoxicity (IC50) H1975 Cell (after 24 h)
// values below are reported IC50 at 24 h

Examples from the recorded data:
> print(dat)
                                   molecule  test.value
1  CCc1oc(=O)c(Cc2c(OC)cc3ccncc3c2O)c(O)c1C     > 80 µM
2  COc1cc2ccncc2c(O)c1C [Compound 2, 6-methoxy-7-methyl-8-hydroxy-isoquinolin]     > 80 µM
3  COc1cc2ccncc2c(O)c1Cc1c(O)c(OC)c2c(c1O)C(=O)O[C@H]2[C@@H](C)O     > 80 µM
4  COc1cc2ccncc2c(O)c1Cc1c(OC)cc(O)c2cnccc12       11 µM
5  COc1cc2ccncc2c(O)c1Cc1c(OC)c(C)c(O)c2cnccc12     > 80 µM
6  CCC(=O)c1c(C)c(O)c(Cc2c(OC)cc3ccncc3c2O)c(O)c1O     > 80 µM

Input line: Return the recorded IC50 at 24 h value; entry: COc1cc(O)c2cnccc2c1 [Compound 1, 6-methoxy-8-hydroxy-isoquinolin]
Output line: 76.2 µM

Input line: Return the recorded IC50 at 24 h value; entry: CCc1cc(O)c(Cc2c(OC)cc3ccncc3c2O)c(=O)o1
Output line: > 80 µM
